# ASSAY_PROTOCOL: MTT cytotoxicity assay in diploid lung fibroblasts WI-38
# Assay type: cell-based, human
# MEASUREMENT_CONTEXT: human, WI-38 diploid lung fibroblasts; WI-38, at 175 µM, 72 h; read-out: cell viability

MOLECULE: C#CC(Cl)CCCCCCCCCCCCCCC (racemic)
viability at 72 h, 175 µM: ~75%

====

# System: NSCLC U-1810 cells
# ASSAY_PROTOCOL: MTT cytotoxicity assay in NSCLC U-1810 cells
# Format: cell-based, human
VALUE_TYPE: cytotoxic activity in NSCLC U-1810 cells (in words)

COMPOUND: C#CC(O)C=CCCCCCCCC1CC1CCCCCC (centres unmarked) [Compound 8]
ENDPOINT_VALUE: equally active
//
COMPOUND: C#C[C@H](O)/C=C/CCCCCCCCC/C=C\CCCCC(C)C [Compound 22]
ENDPOINT_VALUE: equally active
//
COMPOUND: C#C[C@H](O)/C=C/CCCCCCCCCCCCCC(C)C [Compound 19, (3R)-19-Methylicos-(4E)-en-1-yn-3-ol]
ENDPOINT_VALUE: equally active
//
COMPOUND: C#C[C@H](O)/C=C/CCCCCCCCCCCCCCC [scal-18, (3R)-Icos-(4E)-en-1-yn-3-ol]
ENDPOINT_VALUE: equally active
//
COMPOUND: C#C[C@H](O)/C=C/CCCCCCCCCCCCCCCC [Compound 20, (3R)-Henicos-(4E)-en-1-yn-3-ol]
ENDPOINT_VALUE: equally active
//
COMPOUND: C#C[C@H](O)/C=C/CCCCCCCCCCCCC(C)C [Compound 1, (3R)-18-Methylnonadec-(4E)-en-1-yn-3-ol]
ENDPOINT_VALUE: equally active
